Origin of measurements: patent US20240343814A1

target-system: Recombinant human his-tagged IGF 1R extracellular domain protein (human) (UniProt P08069)
experiment: SPR, captured IgG, IGF-1R ECD-his analyte, dissociation pH 7.4
Exercise: state measured kon for each of the binders provided.
Expressed in M⁻¹ s⁻¹, but write only the number.

Give recorded kon. VRDN-02517 (antibody, V domains shown) VH: EVQLVQSGGGLVKPGGSLRLSCAASGFTFSSFAMHWVRQAPGKGLEWISVIDTRGATYYADSVKGRFTISRDNAKNSLYLQMNSLRAEDTAVYYCAHLGNFYYGMDVWGQGTTVTVSS VL: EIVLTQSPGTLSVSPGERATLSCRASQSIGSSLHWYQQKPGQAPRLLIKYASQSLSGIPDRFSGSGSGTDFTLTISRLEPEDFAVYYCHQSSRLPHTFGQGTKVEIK 247000

Provide kon value for the following binder: VRDN-02535 (antibody, V domains shown) VH: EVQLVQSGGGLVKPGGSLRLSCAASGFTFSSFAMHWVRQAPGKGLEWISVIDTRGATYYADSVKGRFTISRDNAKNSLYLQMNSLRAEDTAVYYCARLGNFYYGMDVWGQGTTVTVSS VL: EIVLTQSPGTLSVSPGERATLSCRASQSIGHSLHWYQQKPGQAPRLLIKYASQSLSGIPDRFSGSGSGTDFTLTISRLEPEDFAVYYCHQSSRLPHTFGQGTKVEIK 112000

Give recorded kon. VRDN-02518 (antibody, V domains shown) VH: EVQLVQSGGGLVKPGGSLRLSCAASGFTFSSFAMHWVRQAPGKGLEWISVIDTRGATYYADSVKGRFTISRDNAKNSLYLQMNSLRAEDTAVYYCARHGNFYYGMDVWGQGTTVTVSS VL: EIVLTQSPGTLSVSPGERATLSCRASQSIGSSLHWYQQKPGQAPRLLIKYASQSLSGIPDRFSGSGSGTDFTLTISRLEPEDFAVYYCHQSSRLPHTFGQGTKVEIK 115000

Note kon for the binder shown: VRDN-02508 (antibody, V domains shown) VH: EVQLVQSGGGLVKPGGSLRLSCAASGFTFSSFHMHWVRQAPGKGLEWISVIDTRGATYYADSVKGRFTISRDNAKNSLYLQMNSLRAEDTAVYYCARLGNFYYGMDVWGQGTTVTVSS VL: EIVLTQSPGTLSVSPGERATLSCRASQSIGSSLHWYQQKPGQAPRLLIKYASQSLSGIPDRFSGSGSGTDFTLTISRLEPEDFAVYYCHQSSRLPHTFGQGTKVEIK 194000

Return kon for the following binder: VRDN-02521 (antibody, V domains shown) VH: EVQLVQSGGGLVKPGGSLRLSCAASGFTFSSFAMHWVRQAPGKGLEWISVIDTRGATYYADSVKGRFTISRDNAKNSLYLQMNSLRAEDTAVYYCARLGNHYYGMDVWGQGTTVTVSS VL: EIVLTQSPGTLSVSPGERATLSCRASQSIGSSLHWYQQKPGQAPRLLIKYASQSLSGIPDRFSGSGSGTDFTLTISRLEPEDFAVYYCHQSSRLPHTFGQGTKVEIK 48500

Name the recorded kon of the item VRDN-02543 (antibody, V domains shown) VH: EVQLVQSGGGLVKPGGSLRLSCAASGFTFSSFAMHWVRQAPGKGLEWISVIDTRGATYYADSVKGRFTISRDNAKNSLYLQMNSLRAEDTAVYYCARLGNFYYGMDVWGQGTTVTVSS VL: EIVLTQSPGTLSVSPGERATLSCRASQSIGSSLHWYQQKPGQAPRLLIKYASQHLSGIPDRFSGSGSGTDFTLTISRLEPEDFAVYYCHQSSRLPHTFGQGTKVEIK in your answer. 112000

Identify measured kon corresponding to VRDN-02515 (antibody, V domains shown) VH: EVQLVQSGGGLVKPGGSLRLSCAASGFTFSSFAMHWVRQAPGKGLEWISVIDTRGAHYYADSVKGRFTISRDNAKNSLYLQMNSLRAEDTAVYYCARLGNFYYGMDVWGQGTTVTVSS VL: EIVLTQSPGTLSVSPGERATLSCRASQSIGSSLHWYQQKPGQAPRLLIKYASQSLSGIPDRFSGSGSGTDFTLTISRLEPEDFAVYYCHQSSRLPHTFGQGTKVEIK 102000

Give the reported kon for this binder. VRDN-02509 (antibody, V domains shown) VH: EVQLVQSGGGLVKPGGSLRLSCAASGFTFSSFAHHWVRQAPGKGLEWISVIDTRGATYYADSVKGRFTISRDNAKNSLYLQMNSLRAEDTAVYYCARLGNFYYGMDVWGQGTTVTVSS VL: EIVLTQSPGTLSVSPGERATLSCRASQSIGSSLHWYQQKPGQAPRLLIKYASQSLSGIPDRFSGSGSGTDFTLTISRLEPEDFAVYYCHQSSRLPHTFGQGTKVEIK 169000

Give kon for the following binder: VRDN-02527 (antibody, V domains shown) VH: EVQLVQSGGGLVKPGGSLRLSCAASGFTFSSFAMHWVRQAPGKGLEWISVIDTRGATYYADSVKGRFTISRDNAKNSLYLQMNSLRAEDTAVYYCARLGNFYYGMDHWGQGTTVTVSS VL: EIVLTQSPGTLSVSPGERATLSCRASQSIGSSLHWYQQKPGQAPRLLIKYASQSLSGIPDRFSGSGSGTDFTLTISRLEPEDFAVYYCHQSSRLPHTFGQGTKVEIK 95900

Provide kon value for the following binder: VRDN-02542 (antibody, V domains shown) VH: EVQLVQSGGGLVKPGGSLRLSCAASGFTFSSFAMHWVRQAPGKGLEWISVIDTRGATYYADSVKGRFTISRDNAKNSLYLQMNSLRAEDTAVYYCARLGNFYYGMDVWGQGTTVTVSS VL: EIVLTQSPGTLSVSPGERATLSCRASQSIGSSLHWYQQKPGQAPRLLIKYASHSLSGIPDRFSGSGSGTDFTLTISRLEPEDFAVYYCHQSSRLPHTFGQGTKVEIK 187000
